Values from the supplement of paper PMC10567573

B1: KRT34 (parent)
chain: YQSYFKTIEELQQKILCAKAENAR

Variants of: B1
Assay: protein stability index of a GFP-peptide fusion (GPS, HEK-293T) (PSI 1-6); higher = more stable;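 also: lentivirally expressed fusions sorted by FACS into six bins by GFP to DsRed ratio, PSI derived from sequencing read proportions per bin multiplied by bin number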
Conditions: c terminus: a fixed tail appended

{"Sequence Entry": "YQSYFKTIEGLQQKILCAKAENAR [E10G]", "protein stability index": 1.7}
{"Sequence Entry": "YQSYFKTIEELQQKILCAKAENRR [A23R]", "protein stability index": 2.06}
{"Sequence Entry": "YQSYFKMIEELQQKILCAKAENAR [T7M]", "protein stability index": 1.67}
{"Sequence Entry": "YQSYFKTIGELQQKILCAKAENAR [E9G]", "protein stability index": 1.64}
{"Sequence Entry": "YGSYFKTIEELQQKILCAKAENAR [Q2G]", "protein stability index": 2.12}
{"Sequence Entry": "YQSYFKTIKELQQKILCAKAENAR [E9K]", "protein stability index": 2.2}
{"Sequence Entry": "YQSYKKTIEELQQKILCAKAENAR [F5K]", "protein stability index": 2.84}
